# System Tested: FITC-BSA (Bos taurus, UniProt P02769)
# Construct: purchased Millipore Sigma-Aldrich
# Sequence (P02769 25-607): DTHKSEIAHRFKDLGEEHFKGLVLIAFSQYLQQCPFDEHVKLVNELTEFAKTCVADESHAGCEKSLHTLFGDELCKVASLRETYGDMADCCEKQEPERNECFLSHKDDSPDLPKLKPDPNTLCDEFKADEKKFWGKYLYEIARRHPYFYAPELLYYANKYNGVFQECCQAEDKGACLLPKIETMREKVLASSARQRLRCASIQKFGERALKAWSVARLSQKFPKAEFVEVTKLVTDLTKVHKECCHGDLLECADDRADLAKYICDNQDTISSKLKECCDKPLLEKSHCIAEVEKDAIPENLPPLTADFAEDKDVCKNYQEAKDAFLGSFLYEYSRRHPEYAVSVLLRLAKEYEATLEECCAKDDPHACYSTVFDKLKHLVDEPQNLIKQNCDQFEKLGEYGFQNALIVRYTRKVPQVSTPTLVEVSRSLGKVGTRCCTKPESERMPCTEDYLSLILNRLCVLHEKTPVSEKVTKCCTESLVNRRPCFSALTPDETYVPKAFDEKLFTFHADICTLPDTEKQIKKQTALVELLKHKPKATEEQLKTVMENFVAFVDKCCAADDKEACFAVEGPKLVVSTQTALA
# Measurement Protocol: MST binding to FITC-BSA
# Design: species or system bovine
# Assay Context: 0.41 μM BSA; max. conc. first capillary in 2nd CAC range; read-out: Kd
Below: a set of entries, each annotated with reported Kd.

## Input Which Kd is reported with FITC-BSA (Bos taurus, UniProt P02769) for this entry: O=S(=O)(O)C(F)(F)C(F)(F)C(F)(F)C(F)(F)F [[N1112(OH)][C4F9SO3]] ?
## Output 1490 µM

## Input What Kd appears in the records for this molecule with FITC-BSA (Bos taurus, UniProt P02769)? CCn1cc[n+](C)c1.O=S(=O)([O-])C(F)(F)C(F)(F)C(F)(F)C(F)(F)F
## Output 1730 µM
